Target: GABA A receptor alpha-1/beta-1/gamma-2 (Homo sapiens, UniProt P14867+P18505+P18507)
Sequence (P14867 whole entry): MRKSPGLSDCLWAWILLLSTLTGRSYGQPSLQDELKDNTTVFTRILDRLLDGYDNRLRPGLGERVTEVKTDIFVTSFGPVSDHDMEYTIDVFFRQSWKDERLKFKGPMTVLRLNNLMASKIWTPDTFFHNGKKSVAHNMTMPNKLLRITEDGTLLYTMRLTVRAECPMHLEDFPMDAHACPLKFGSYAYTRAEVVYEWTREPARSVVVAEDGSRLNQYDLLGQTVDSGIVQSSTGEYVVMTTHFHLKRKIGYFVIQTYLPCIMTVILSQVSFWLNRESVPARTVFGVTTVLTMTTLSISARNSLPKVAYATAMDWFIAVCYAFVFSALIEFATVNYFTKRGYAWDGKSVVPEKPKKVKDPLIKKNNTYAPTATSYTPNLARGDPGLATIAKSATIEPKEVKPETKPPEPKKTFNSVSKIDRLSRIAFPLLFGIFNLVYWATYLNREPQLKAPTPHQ
Sequence (P18507 whole entry): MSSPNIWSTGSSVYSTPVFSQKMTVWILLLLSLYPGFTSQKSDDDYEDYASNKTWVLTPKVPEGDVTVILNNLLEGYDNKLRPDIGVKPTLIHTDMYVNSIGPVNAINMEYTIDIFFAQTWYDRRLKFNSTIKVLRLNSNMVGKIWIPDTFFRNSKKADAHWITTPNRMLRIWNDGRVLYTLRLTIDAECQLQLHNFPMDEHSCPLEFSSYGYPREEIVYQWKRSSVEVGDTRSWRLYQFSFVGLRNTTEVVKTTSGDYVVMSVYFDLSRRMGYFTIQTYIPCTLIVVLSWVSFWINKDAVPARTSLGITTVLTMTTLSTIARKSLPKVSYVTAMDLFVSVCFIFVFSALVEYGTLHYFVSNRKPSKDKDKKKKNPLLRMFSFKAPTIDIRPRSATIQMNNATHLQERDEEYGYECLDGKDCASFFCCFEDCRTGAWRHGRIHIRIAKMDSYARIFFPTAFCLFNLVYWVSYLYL
Sequence (P18505 whole entry): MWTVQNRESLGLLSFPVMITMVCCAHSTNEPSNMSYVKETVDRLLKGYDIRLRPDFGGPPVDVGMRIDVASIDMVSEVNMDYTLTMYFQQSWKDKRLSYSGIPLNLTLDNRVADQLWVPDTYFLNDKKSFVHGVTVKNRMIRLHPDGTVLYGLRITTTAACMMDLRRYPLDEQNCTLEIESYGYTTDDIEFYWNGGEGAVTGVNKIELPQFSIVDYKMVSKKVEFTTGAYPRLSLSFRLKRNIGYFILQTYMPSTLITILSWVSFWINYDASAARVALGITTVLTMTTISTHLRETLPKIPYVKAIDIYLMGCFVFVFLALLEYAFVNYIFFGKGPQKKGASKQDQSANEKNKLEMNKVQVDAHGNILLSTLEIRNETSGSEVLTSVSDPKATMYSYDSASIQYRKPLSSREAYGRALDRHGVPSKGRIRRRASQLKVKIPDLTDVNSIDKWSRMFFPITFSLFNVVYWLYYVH
Experiment: Modulation of GABA-induced chloride currents in Xenopus laevis oocytes expressing human alpha-1-beta-1-gamma-2 GABA-A receptor subunits
Format: functional, cell-based, Oocyte
Kindly state pEC50 for each of the entries shown.
// field semantics: pEC50 = negative decimal log of concentration (mol/L)

Request: What does the record list as pEC50 for CC(C)c1cc(Cl)cc(C(C)C)c1O ?
Result: 5.00

Request: Another compound to check: CC(C)c1cc(C(=O)c2ccccc2)cc(C(C)C)c1O
Result: 5.05

Request: Another compound to check: CC(C)c1cc(I)cc(C(C)C)c1O
Result: 4.92

Request: Another compound to check: CC(C)c1cccc(C(C)C)c1O [PROPOFOL]
Result: 5.10

Request: Another compound to check: CC(C)c1cc(Br)cc(C(C)C)c1O
Result: 4.92
